# System: UACC-62 melanoma
# experiment: NCI tumour cell line growth inhibition, 48 h
Provide the recorded TGI for the entries that follow.

Use these answered entries as a reference point.
Q: Give the reported TGI for this molecule. CN1C(=O)C(O)CC1c1cccc(F)c1 (stereo not drawn)
Ans: > 100 µM

Q: Give the reported TGI for this molecule. `CCc1c[nH]c2ncnc(N3CC[C@@](N)(CNC(=O)c4ccc(F)cc4F)C3)c12`
Ans: > 100 µM

# input for lookup
Q: Give the reported TGI for this molecule. `N#Cc1c2c([nH]c(=O)c1C#N)CCCC2`
Ans: > 100 µM

---

# Test system: HCT-116 colon
# experiment: NCI tumour cell line growth inhibition, 48 h
measure: TGI

Use these answered entries as a reference point.
Q: Give the reported TGI for this compound. CCOC(=O)C1(Cc2c[nH]c3ccccc23)C(O)CCCN1C(C)=O (centres undefined)
Ans: > 100 µM

Q: Give the reported TGI for this compound. CN1C(=O)C(O)CC1c1cccc(F)c1 (centres undefined)
Ans: > 100 µM

Provide TGI for all items below, preserving their order.
1. COC(=O)[C@@]12OC[C@]34C([C@@H](O)C1O)[C@@]1(C)CC(=O)C(O)=C(C)C1C[C@H]3OC(=O)[C@H](OC(=O)CC(C)C(F)(F)F)[C@H]42 (some centres undefined)
2. CC(=O)C1=C([O-])C(C)OC1=O.CC(=O)C1=C([O-])C(C)OC1=O.[NH-]C1CCCC[C@H]1[NH-].[Pt+4] (centres undefined)

Ans:
0.18 µM
> 100 µM

---

Provide the recorded TGI for the entries that follow.
# Test system: NCI-H23 lung
# experiment: NCI tumour cell line growth inhibition, 48 h
Give bare numbers, in µM.

Use these answered entries as a reference point.
Q: Give the reported TGI for this compound. CC(=O)OC1C2(CC3N4C(=O)C5(CO)SSC4(CC31O)C(=O)N5C)OC(C)C(C)(C)C2=O (stereo not given)
Ans: 0.0932

Q: Give the reported TGI for this compound. `COc1ccc2c(c1)C(=O)c1c-2n(CCCN2CCOCC2)c(=O)c2ccccc12`
Ans: 10.1

Q: Give the reported TGI for this compound. `CN(C)c1ccc(N=Nc2c([O-])ccc3ccccc23)cc1.[C-]#[O+].[C-]#[O+].[Ir]`
Ans: 54.9

# input for lookup
Q: Give the reported TGI for this compound. `O=C(O)c1cc2c(s1)C(=O)c1sccc1C2=O`
Ans: 4.71

---

# System: OVCAR-5 ovarian
# experiment: NCI tumour cell line growth inhibition, 48 h
measure: TGI (µM)
One number for each entry, in µM.

Use these answered entries as a reference point.
Q: Give the reported TGI for this compound. `Cc1cc(N2CCCC2)nc(N(CCCNc2ccnc3cc(Cl)ccc23)Cc2ccc3c(c2)OCO3)n1`
Ans: 8.92

Q: Give the reported TGI for this compound. `CCOC(=O)N1CCN(S(=O)(=O)c2oc(-c3ccc(Cl)cc3)nc2C#N)CC1`
Ans: 13.3

Q: Give the reported TGI for this compound. `Fc1ccc(Nc2nc(NCCNc3ccnc4cc(Cl)ccc34)nc(N3CCOCC3)n2)cc1`
Ans: 32.1

New cases:
Q: Give the reported TGI for this compound. `CCCCC[C@H]1C/C=C2/C(=O)C(Cl)=C[C@@H]2C/C=C\CCCC(=O)O[C@@H](CCCCC)C/C=C2/C(=O)C(Cl)=C[C@@H]2C/C=C\CCCC(=O)O1`
Ans: 2.94
